system-name: human OT7T175 (metastin receptor) (human, UniProt Q969F8 1-398)
Sequence (Q969F8 whole entry L364H): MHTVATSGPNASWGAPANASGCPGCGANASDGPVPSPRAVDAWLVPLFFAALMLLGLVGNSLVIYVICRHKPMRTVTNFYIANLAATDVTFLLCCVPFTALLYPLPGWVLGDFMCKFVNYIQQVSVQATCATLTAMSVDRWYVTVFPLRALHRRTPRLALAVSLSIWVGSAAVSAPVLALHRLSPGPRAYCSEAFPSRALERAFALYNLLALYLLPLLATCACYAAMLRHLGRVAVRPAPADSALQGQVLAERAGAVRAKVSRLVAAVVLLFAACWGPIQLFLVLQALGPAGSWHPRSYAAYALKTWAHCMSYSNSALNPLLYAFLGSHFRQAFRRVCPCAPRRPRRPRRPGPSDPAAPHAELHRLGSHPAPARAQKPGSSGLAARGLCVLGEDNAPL
assay-overview: cell-based or functional assay
Non-standard residues stand in square brackets, D forms with d. No end group written: not given here. *: point of attachment. Phe(4-NH2) = Nc1ccc(C[C@H](N)C(=O)O)cc1; Arg(Me) = CNC(=N)NCCC[C@H](N)C(=O)O; Fmoc = O=C(OCC1c2ccccc2-c2ccccc21)*
recorded-metric: Ca ion level-increasing activity (FLIPR)

Give a short answer stating reported Ca ion level-increasing activity (FLIPR) for LPNYNWNSFGLRF-NH2 (also called Compound No. 32) [Leu-Pro-Asn-MS10] .
10 x Metastin (1-54)

Give a short answer stating reported Ca ion level-increasing activity (FLIPR) for YN[dW]NSFGL[Arg(Me)]F-NH2 (also called Compound No. 143) [[D-Trp3,Arg(Me)9]MS10] .
3 x Metastin (1-54)

Give a short answer stating reported Ca ion level-increasing activity (FLIPR) for Fmoc-NSFGLRF-NH2 [des(1-3)-Fmoc-MS10] .
1 x Metastin (1-54)

Give a short answer stating reported Ca ion level-increasing activity (FLIPR) for YNWNSFGLRX (Nal(2)10; C-terminal amide, also called Compound No. 110) [[Nal(2)10]MS10] .
20 x Metastin (1-54)

Give a short answer stating reported Ca ion level-increasing activity (FLIPR) for Fmoc-NSFGL[Arg(Me)]F-NH2 [des(1-3)-Fmoc-[Arg(Me)9]MS10] .
1 x Metastin (1-54)

Give a short answer stating reported Ca ion level-increasing activity (FLIPR) for YNWNSXGLRF (D-Tyr1; Cha6; Arg(Me)9; C-terminal amide) [[D-Tyr1,Cha6,Arg(Me)9]MS10 (Compound No. 172)] .
1 x Metastin (1-54)

Below are 5 binders. Give each one its Ca ion level-increasing activity (FLIPR).
1. YNWNSFGLR[Phe(4-NH2)]-NH2 (also called Compound No. 131) [[Phe(4NH2)10]MS10]
2. YNWNSFGLRX (Hph10; C-terminal amide) [[Hph10]MS10]
3. KNWNSFGLRF-NH2 [[Lys1]MS10]
4. Fmoc-WNSFGLRF-NH2 (SMILES CC(C)C[C@H](NC(=O)CNC(=O)[C@H](Cc1ccccc1)NC(=O)[C@H](CO)NC(=O)[C@H](CC(N)=O)NC(=O)[C@H](Cc1c[nH]c2ccccc12)NC(=O)OCC1c2ccccc2-c2ccccc21)C(=O)N[C@@H](CCCNC(=N)N)C(=O)N[C@@H](Cc1ccccc1)C(N)=O, also called Compound No. 54) [des(1-2)-Fmoc-MS10]
5. YNWNLFGLRF-NH2 (also called Compound No. 24) [[Leu5]MS10]

1: 3 x Metastin (1-54); 2: 1 x Metastin (1-54); 3: 1 x Metastin (1-54); 4: 5 x Metastin (1-54); 5: 1 x Metastin (1-54)
